Hello, the source for this data is patent US8722123B2, in case you need it.

test system: S. enteritidis; type: cell-based, Salmonella enteritidis
Parameter: S. enteritidis counts at 30 min. Scope: all listed entries.
I only need the number, in log CFU/ml, no unit after it.

Example entries begin here.
compound: CC(=O)O
target-or-system: S. enteritidis
result: 6.5

compound: CC(=O)CCC(=O)O [0.5% levulinic acid (pH 2.6), levulinic acid]
target-or-system: S. enteritidis
result: 6.7

compound: CC(=O)CCC(=O)O [1.5% levulinic acid (pH 2.8), levulinic acid]
target-or-system: S. enteritidis
result: 6.5

compound: CC(=O)CCC(=O)O [3.0% levulinic acid (pH 2.7), levulinic acid]
target-or-system: S. enteritidis
result: 3.8

We next turn to a different compound, shown below.
So for CC(=O)CCC(=O)O [1.0% levulinic acid (pH 2.9), levulinic acid] , the logged S. enteritidis counts at 30 min turned out to be 6.7
